# credit: PubChem BioAssay AID504834

- Protocol details: Primary qHTS for delayed death inhibitors of the malarial parasite plastid, 96 hour incubation
- Experimental parameters: P. falciparum luciferase reporter growth; series mostly up to 28.7 µM
About 22,000 (6.9%) of roughly 320,000 compounds were called active. Roughly 27% stayed inconclusive and do not appear here. Calls come from the whole dose curve; as a rule, active = well fitted inhibition curve with a large enough effect; inconclusive = small, poorly fitted or top-dose-only effect, or another doubt; inactive = no such curve, though single readings can be large or run the other way. The sample as a whole holds a higher share of actives than the screen did.
The reply should be one of these categories: YES for active, NO for inactive

Asked: // outcome(item) with item = O=C(CCCCO)c1ccc(O)c(Cl)c1
Given back: NO

Asked: // outcome(item) with item = COC(=O)CN1C(=O)[C@H]2[C@@H](/C=C/c3ccccc3)N3C(=O)CN(CC4CC4)C(=O)[C@@]3(Cc3ccccc3)[C@H]2C1=O
Given back: NO

Asked: // outcome(item) with item = O=C(Nc1nc(-c2ccncc2)cs1)C1COc2ccccc2O1 (stereo not given)
Given back: NO

Asked: // outcome(item) with item = CC(=O)c1c(N2CCOCC2)nc(=S)n(-c2cc(C)ccc2C)c1C
Given back: NO

Asked: // outcome(item) with item = Fc1ccccc1/C=C1\CCCC2=C1Nc1ncnn1C2c1ccccc1F (stereo not given)
Given back: YES

Further cases:
Asked: // outcome(item) with item = O=C(N1CCOCC1)N(Cc1ccccc1)c1ccccn1
Given back: NO

Asked: // outcome(item) with item = COc1cc2c(C(=O)O)c(C)n(C)c2c2ccccc12
Given back: NO

Asked: // outcome(item) with item = O=C(CCCN=C1NS(=O)(=O)c2ccccc21)OCC(=O)c1ccc(F)c(F)c1
Given back: NO

Asked: // outcome(item) with item = CC(=O)c1c(N2CCOCC2)nc(=S)n(Cc2ccccc2)c1C
Given back: YES

Asked: // outcome(item) with item = N#CCCN1CCN(S(=O)(=O)c2ccc(S(=O)(=O)N3CCCC3)cc2)CC1
Given back: NO
